test: Toxicity (CC50) evaluated with the cells utilized in the infection assay; format: cell-based; conditions: Table 2
metric_name: CC50 (µM)
Supply the numeric figure in µM, leaving out any unit text.

CN(C(=O)C(Cc1ccccc1)NC(=O)Cc1n[nH]c2c(N)cccc12)c1ccc2[nH]ncc2c1 (centres unmarked) = 183

Shift focus to the following entry.
Field CC50 (entry Cc1[nH]c2ccccc2c1CC(=O)NC(Cc1ccccc1)C(=O)N(C)c1ccc2[nH]ncc2c1 (centres unmarked) ) reads 366

---

test: Metabolic stability in human liver microsomes; conditions: liver microsomes; Table 3
CLapp of 4 L/h/kg or higher: Condition met. Under 4 L/h/kg: Condition not met.

Observe how each entry below is paired with its result.
Cc1[nH]c2ccccc2c1CC(=O)NC(Cc1ccccc1)C(=O)N(C)c1ccc2[nH]ncc2c1 (centres unmarked) = Condition met
Cc1[nH]c2ccccc2c1CC(=O)N[C@@H](Cc1ccccc1)C(=O)N(C)c1ccccc1 [PF-74, reference compound] = Condition met
C[C@]12CC[C@H]3[C@@H](CCC4=CC(=O)CC[C@@]43C)[C@@H]1CC[C@@H]2O [Testosterone, reference compound] = Condition met

Input: Determine whether measured CLapp meets or exceeds 4 L/h/kg for CN(C(=O)C(Cc1ccccc1)NC(=O)Cc1n[nH]c2c(N)cccc12)c1ccc2[nH]ncc2c1 (centres unmarked)
Output: Condition not met

---

Catalogue of compounds with associated CLh
assay: Metabolic stability in human liver microsomes; conditions: liver microsomes; Table 3
Supply the numeric figure in mL/min/kg, leaving out any unit text.

C[C@]12CC[C@H]3[C@@H](CCC4=CC(=O)CC[C@@]43C)[C@@H]1CC[C@@H]2O [Testosterone, reference compound] = 15.758
Cc1[nH]c2ccccc2c1CC(=O)N[C@@H](Cc1ccccc1)C(=O)N(C)c1ccccc1 [PF-74, reference compound] = 19.824
CN(C(=O)C(Cc1ccccc1)NC(=O)Cc1n[nH]c2c(N)cccc12)c1ccccc1 (centres unmarked) [Compound C4] = 15.409
Cc1[nH]c2ccccc2c1CC(=O)NC(Cc1ccccc1)C(=O)N(C)c1ccc2[nH]ncc2c1 (centres unmarked) [Compound C11] = 15.828

Shift focus to the following entry.
Field CLh (entry CN(C(=O)C(Cc1ccccc1)NC(=O)Cc1n[nH]c2c(N)cccc12)c1ccc2[nH]ncc2c1 (centres unmarked) [Compound C12] ) reads 9.696

---

experiment: Metabolic stability in human liver microsomes; conditions: human, liver microsomes, T1/2, metabolic stability of racemates and (R)/(S) enantiomers; Table 5
Catalogue of molecules with associated half-life
Supply the numeric figure in min, leaving out any unit text.

Cc1[nH]c2ccccc2c1CC(=O)NC(Cc1ccccc1)C(=O)N(C)c1ccc2[nH]ncc2c1 (centres unmarked) = 17.6

Shift focus to the following entry.
Field half-life (entry CN(C(=O)C(Cc1ccccc1)NC(=O)Cc1n[nH]c2c(N)cccc12)c1ccc2[nH]ncc2c1 (centres unmarked) ) reads 71

---

Catalogue of compounds with associated k
test: Metabolic stability in human liver microsomes; settings: liver microsomes; Table 3

Field k (entry Cc1[nH]c2ccccc2c1CC(=O)N[C@@H](Cc1ccccc1)C(=O)N(C)c1ccccc1 [PF-74, reference compound] ) reads 1.166

Field k (entry CN(C(=O)C(Cc1ccccc1)NC(=O)Cc1n[nH]c2c(N)cccc12)c1ccc2[nH]ncc2c1 (stereo not shown) ) reads 0.00976

Field k (entry Cc1[nH]c2ccccc2c1CC(=O)NC(Cc1ccccc1)C(=O)N(C)c1ccc2[nH]ncc2c1 (stereo not shown) ) reads 0.03934

Field k (entry CN(C(=O)C(Cc1ccccc1)NC(=O)Cc1n[nH]c2c(N)cccc12)c1ccccc1 (stereo not shown) ) reads 0.03481

---

Test: Metabolic stability in human liver microsomes
Settings: human, liver microsomes
Procedure: The compounds were also assessed in human liver microsomal stability assays, plasma protein binding, aqueous solubility (pH 7.4), and evaluation of permeability using the Caco-2 assay. Analysis in silico of the drug-like properties of the compounds generated in this study is used to drive compound selection. Physicochemical properties (log S, log P, etc.) of all of the new scaffolds are evaluated and compared to PF-74 using StarDrop (Optibrium, UK). […]
metric_name: microsomal CLint (µL/min/mg)
Supply the numeric figure in µL/min/mg, leaving out any unit text.

Cc1[nH]c2ccccc2c1CC(=O)NC(Cc1ccccc1)C(=O)N(C)c1ccc2[nH]ncc2c1 (centres unmarked) [Compound C11] = 78.7

Field microsomal CLint (entry CN(C(=O)C(Cc1ccccc1)NC(=O)Cc1n[nH]c2c(N)cccc12)c1ccc2[nH]ncc2c1 (centres unmarked) [Compound C12] ) reads 19.5

---

assay: Metabolic stability in human liver microsomes; conditions: liver microsomes; Table 3
metric_name: Eh
Number only, please.

Answered examples (3):
CN(C(=O)C(Cc1ccccc1)NC(=O)Cc1n[nH]c2c(N)cccc12)c1ccccc1 (stereo not shown) = 77
Cc1[nH]c2ccccc2c1CC(=O)N[C@@H](Cc1ccccc1)C(=O)N(C)c1ccccc1 [PF-74, reference compound] = 99.12
Cc1[nH]c2ccccc2c1CC(=O)NC(Cc1ccccc1)C(=O)N(C)c1ccc2[nH]ncc2c1 (stereo not shown) = 79.1

Shift focus to the following entry.
Field Eh (entry CN(C(=O)C(Cc1ccccc1)NC(=O)Cc1n[nH]c2c(N)cccc12)c1ccc2[nH]ncc2c1 (stereo not shown) ) reads 48.5

---

Catalogue of compounds with associated Therapeutic index (CC50/IC50)
Tested on: HIV-1
Assay: microbe, parasite or virus in culture
Settings: racemates and (R)/(S) enantiomers; Table 4
Description: The potency of compounds of Formula I was evaluated via single round and multicycle HIV-1 replication assays. The single round assay is used as the first level of potency testing. […] The multicycle HIV-1 replication assay uses primary isolates and primary human peripheral blood mononuclear cells (PBMCs). Toxicity is evaluated simultaneously with the cells utilized in each assay to allow determination of the therapeutic index (TI=CC50/IC50) of each compound. […]
Number only, please.

Answered examples (2):
CN(C(=O)C(Cc1ccccc1)NC(=O)Cc1n[nH]c2c(N)cccc12)c1ccc2[nH]ncc2c1 (centres unmarked) [Compound C12] = 606
Cc1[nH]c2ccccc2c1CC(=O)NC(Cc1ccccc1)C(=O)N(C)c1ccc2[nH]ncc2c1 (centres unmarked) [Compound C11] = 2115

Field Therapeutic index (CC50/IC50) (entry CN(C(=O)C(Cc1ccccc1)NC(=O)Cc1n[nH]c2c(N)cccc12)c1ccccc1 (centres unmarked) [Compound C4] ) reads 5515

Field Therapeutic index (CC50/IC50) (entry Cc1[nH]c2ccccc2c1CC(=O)N[C@@H](Cc1ccccc1)C(=O)N(C)c1ccccc1 [(S)-PF-74, reference compound] ) reads 3075

Field Therapeutic index (CC50/IC50) (entry Cc1[nH]c2ccccc2c1CC(=O)N[C@@H](Cc1ccccc1)C(=O)N(C)c1ccccc1 [PF-74, reference compound] ) reads 768

---

tested on: cells utilized in each assay; assay: Toxicity (CC50) evaluated with the cells utilized in the infection assay; type: cell-based; conditions: Table 2
Catalogue of molecules with associated CC50
Supply the numeric figure in µM, leaving out any unit text.

Cc1[nH]c2ccccc2c1CC(=O)N[C@@H](Cc1ccccc1)C(=O)N(C)c1ccccc1 [PF-74, reference compound] = 73

Shift focus to the following entry.
Simply: CN(C(=O)C(Cc1ccccc1)NC(=O)Cc1n[nH]c2c(N)cccc12)c1ccccc1 (centres unmarked) [Compound C4] , cells utilized in each assay, CC50 = 284
